B1: HDV Ribozyme (parent)
chain: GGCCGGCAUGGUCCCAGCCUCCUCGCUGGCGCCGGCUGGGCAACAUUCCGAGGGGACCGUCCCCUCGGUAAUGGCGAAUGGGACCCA

Variants of: B1
Assay: self-cleavage, relative activity (ratio to wild type); higher = more cleavage; co-transcriptional
Catalogue of self-cleavage values

variant: A8U U23G
self-cleavage: 0.415
//
variant: G28U A78C
self-cleavage: 0.0923
//
variant: C21A
self-cleavage: 0.0856
//
variant: C21U C61U
self-cleavage: 0.319
//
variant: C49A C75G
self-cleavage: 0.128
//
variant: C21G G54U
self-cleavage: 0.0875
//
variant: U20A C32A
self-cleavage: 0.0489
//
variant: G25C A83C
self-cleavage: 0.0489
//
variant: G76U G81U
self-cleavage: 0.462
//
variant: C18A G35C
self-cleavage: 0.147
//
variant: C15G G67U
self-cleavage: 0.475
//
variant: G2A U69C
self-cleavage: 0.332
//
variant: G59C C85G
self-cleavage: 0.955
//
variant: G50U U69G
self-cleavage: 0.95
//
variant: C33G A56G
self-cleavage: 0.222
//
variant: C36G G55U
self-cleavage: 0.032
//
variant: G6U G28U
self-cleavage: 0.104
//
variant: U46C A83U
self-cleavage: 0.554
//
variant: C15U C26G
self-cleavage: 0.867
//
variant: C32U C48U
self-cleavage: 0.69
//
variant: G10U C44U
self-cleavage: 0.459
//
variant: G28C A42U
self-cleavage: 0.166
//
variant: C18G C48A
self-cleavage: 0.123
//
variant: G5C G17C
self-cleavage: 0.151
//
variant: G55A U72A
self-cleavage: 0.917
//
variant: U46A C84U
self-cleavage: 0.397
//
variant: G11U C18G
self-cleavage: 0.158
//
variant: G2A G55C
self-cleavage: 0.194
//
variant: C36G A87U
self-cleavage: 0.153
//
variant: G10C U69G
self-cleavage: 0.997
//
variant: C33G U47A
self-cleavage: 0.227
//
variant: C18A A83C
self-cleavage: 0.0831
//
variant: G35A A87G
self-cleavage: 0.473
//
variant: C41G C49A
self-cleavage: 0.489
//
variant: G40U C86G
self-cleavage: 0.562
//
variant: C49G A78C
self-cleavage: 0.262
//
variant: C30G G81U
self-cleavage: 0.158
//
variant: A16G G39A
self-cleavage: 0.404
//
variant: U12G G82C
self-cleavage: 0.633
//
variant: G59U G74A
self-cleavage: 0.46
//
variant: G59C C86U
self-cleavage: 1.01
//
variant: G39C G82C
self-cleavage: 0.0997
//
variant: C4G A45U
self-cleavage: 0.161
//
variant: C33A C84U
self-cleavage: 0.193
//
variant: U37C C44A
self-cleavage: 0.499
//
variant: U69A A78C
self-cleavage: 0.208
//
variant: G5U G40U
self-cleavage: 0.155
//
variant: C13A G25A
self-cleavage: 0.0277
//
variant: G5C G28A
self-cleavage: 0.104
//
variant: C3G C32G
self-cleavage: 0.0282
//
variant: C26U U69A
self-cleavage: 1.11
//
variant: G39C G52U
self-cleavage: 0.253
//
variant: C13G U46A
self-cleavage: 0.0615
//
variant: A51U G54C
self-cleavage: 0.982
//
variant: G74C G76A
self-cleavage: 0.208
//
variant: A43C A83G
self-cleavage: 0.0923
//
variant: A43G G68C
self-cleavage: 0.253
//
variant: C3A C61U
self-cleavage: 0.554
//
variant: U65G A77C
self-cleavage: 0.356
//
variant: G17A G82C
self-cleavage: 0.166
//
variant: G59C G80U
self-cleavage: 0.244
//
variant: C7U G28A
self-cleavage: 0.136
//
variant: A56C C63U
self-cleavage: 1.01
//
variant: C19U C26G
self-cleavage: 0.356
//
variant: C61U U69C
self-cleavage: 0.972
//
variant: C18U G25A
self-cleavage: 0.104
//
variant: C3G C57G
self-cleavage: 0.891
//
variant: U20C A87C
self-cleavage: 0.254
//
variant: A8C G38A
self-cleavage: 0.0369
//
variant: C4G A45G
self-cleavage: 0.201
//
variant: C14U G54C
self-cleavage: 1.2
//
variant: U9C G59A
self-cleavage: 1.05
//
variant: G38C C66U
self-cleavage: 0.153
//
variant: A71U C84A
self-cleavage: 0.862
//
variant: G1U C75A
self-cleavage: 0.277
//
variant: G10A C61A
self-cleavage: 0.674
//
variant: C7G G28U
self-cleavage: 0.0875
//
variant: A43C C85G
self-cleavage: 0.519
//
variant: G1C C84A
self-cleavage: 0.166
//
variant: A45U A77U
self-cleavage: 0.322
//
variant: G29C C33A
self-cleavage: 0.0959
//
variant: G29U C36A
self-cleavage: 0.187
//
variant: C75A G80U
self-cleavage: 0.118
//
variant: G1A C3U
self-cleavage: 0.297
//
variant: G1A C32G
self-cleavage: 0.113
//
variant: G34U U65C
self-cleavage: 0.197
//
variant: U20C A51C
self-cleavage: 0.287
//
variant: C24U U46G
self-cleavage: 0.415
//
variant: C19U G54C
self-cleavage: 0.2
//
variant: G50U U72A
self-cleavage: 0.554
//
variant: C14U C44U
self-cleavage: 0.831
